Each item that follows carries a reported GI50.
Test system: SNB-78
Test: NCI tumour cell line growth inhibition, 48 h
Active and inactive are the calls of the source. Cut-off read from the data, not from the text of the source: active = GI50 up to about 1.1 µM and inactive = higher.

[
  {
    "compound": "O=C1OC2(c3ccccc3Oc3ccccc32)c2ccccc21",
    "GI50": "> 100 µM (inactive)"
  },
  {
    "compound": "C=C(C)[C@H](O)C(O)CC(C)[C@@H]1CCC23CC12CCC1[C@@]2(C)CCC(OC(C)=O)C(C)(C)C2CC(OC2OC(COC(C)=O)C(O)C(O)C2O)[C@]13C (some centres undefined)",
    "GI50": "7.16 µM (inactive)"
  },
  {
    "compound": "O=C(Nc1ccc(Cl)cc1Cl)C(=O)C(C(=O)c1ccc2ccccc2c1)C1OC(=O)c2ccccc21 (centres undefined)",
    "GI50": "3.33 µM (inactive)"
  },
  {
    "compound": "O=C(/C=C/c1ccccc1O)c1cccc2ccccc12",
    "GI50": "> 100 µM (inactive)"
  },
  {
    "compound": "Cc1cccc(C(C)(C)C)c1NC(=O)C(=O)C(c1cnc2ccccc2n1)[N+](=O)[O-] (centres undefined)",
    "GI50": "> 100 µM (inactive)"
  },
  {
    "compound": "Nc1nncs1",
    "GI50": "3240 µM (inactive)"
  },
  {
    "compound": "O=c1[nH]cnc(NC2C=C(CO)C(O)C2O)c1[N+](=O)[O-] (centres undefined)",
    "GI50": "> 100 µM (inactive)"
  },
  {
    "compound": "N=C(N)SCc1cn2ccccc2n1",
    "GI50": "> 100 µM (inactive)"
  },
  {
    "compound": "C=CCOCCCCC(C(C)=O)C(=O)OC (centres undefined)",
    "GI50": "> 100 µM (inactive)"
  },
  {
    "compound": "O=C(CCN1CCOCC1)/C(=C/c1ccccc1)c1ccccc1",
    "GI50": "5.51 µM (inactive)"
  },
  {
    "compound": "CCCCNCCCNCCCNC(=O)c1csc(-c2csc(CCNC(=O)C(NC(=O)C(C)C(O)C(C)NC(=O)C(NC(=O)c3nc(C(CC(N)=O)NCC(N)C(N)=O)nc(N)c3C)C(OC3OC(CO)C(O)C(O)C3OC3OC(CO)C(O)C(OC(N)=O)C3O)c3c[nH]cn3)C(C)O)n2)n1 (centres undefined)",
    "GI50": "> 73.3 µM (inactive)"
  },
  {
    "compound": "CCN(CC)CCOC(=O)/C(=C/c1ccc(OC)cc1)c1cc(OC)c(OC)c(OC)c1",
    "GI50": "9.98 µM (inactive)"
  },
  {
    "compound": "Nc1nc2ncn(CCO)c2c(=S)[nH]1",
    "GI50": "> 100 µM (inactive)"
  },
  {
    "compound": "O=C(Nc1nc2ccc([N+](=O)[O-])cc2s1)C(=O)C(C(=O)c1ccncc1)C1OC(=O)c2ccccc21 (centres undefined)",
    "GI50": "> 100 µM (inactive)"
  },
  {
    "compound": "CCOc1ccccc1N1C(=O)C(=O)C(c2nc3ccccc3o2)/C(=N\\N)C1=O (centres undefined)",
    "GI50": "> 100 µM (inactive)"
  },
  {
    "compound": "CC(C)C(=O)Nc1nc2[nH]cnc2c(=O)[nH]1",
    "GI50": "> 100 µM (inactive)"
  },
  {
    "compound": "C=C1C(=O)O[C@@H]2[C@H]1CCC(C)=C1C=CC(=O)[C@]12C",
    "GI50": "4.61 µM (inactive)"
  },
  {
    "compound": "CC1(C)O[C@H]2[C@H](O)C[C@](O)(CO)C[C@H]2O1",
    "GI50": "> 100 µM (inactive)"
  },
  {
    "compound": "COc1ccc2cc1Oc1ccc(cc1)CC1c3cc(c(OC)cc3CCN1C)Oc1c3c(cc4c1C(C2)N(C)CC4)OCO3 (centres undefined)",
    "GI50": "13.9 µM (inactive)"
  }
]
